tested on: IL-1 β; assay: Ex-vivo human whole blood, LPS-induced IL-1β by ELISA; assay type: cell-based; details: Homo sapiens, Conc 10 μM, LPS 1 ng/ml
Quantity: inhibition at 10 µM (%)
Use % as the unit, but write only the number.

Returns the measured inhibition at 10 µM for the input compound. Input: CCc1nc(-c2ccc(F)cc2)c(-c2ccnc(N=S(C)(=O)c3cccc(F)c3)c2)s1 (stereo not shown) [Example 47]
78.1

Try the compound CCc1nc(-c2ccc(F)c(F)c2)c(-c2ccnc(N=S(=O)(c3ccccc3)C(C)C)c2)s1 (stereo not shown) [Example 60]
35.2

Try the compound CCc1nc(-c2ccc(F)cc2)c(-c2ccnc(N=S(=O)(c3ccccc3)C(C)C)c2)s1 (single isomer, unassigned; (-)) [Example 36]
38.9

Try the compound CCc1nc(-c2ccccc2)c(-c2ccnc(N=S(C)(=O)c3cccc(C)c3)c2)s1 (stereo not shown) [Example 24]
22.7

----------
target: p38 MAP kinase (Homo sapiens, UniProt Q16539)
Sequence (Q16539 whole entry): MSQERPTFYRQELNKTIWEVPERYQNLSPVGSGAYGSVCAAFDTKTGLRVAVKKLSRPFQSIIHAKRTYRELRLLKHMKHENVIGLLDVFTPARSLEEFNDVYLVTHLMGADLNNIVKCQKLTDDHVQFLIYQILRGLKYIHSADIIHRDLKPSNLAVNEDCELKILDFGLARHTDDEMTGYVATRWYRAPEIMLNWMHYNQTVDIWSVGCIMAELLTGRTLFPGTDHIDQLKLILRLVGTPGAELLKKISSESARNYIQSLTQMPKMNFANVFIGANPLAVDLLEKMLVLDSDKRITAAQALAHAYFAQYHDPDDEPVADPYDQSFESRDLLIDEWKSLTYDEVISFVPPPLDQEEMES
Each record gets a class by IC50: bin 0: < 3 µM; bin 1: ≥ 3 µM and < 9 µM; bin 2: ≥ 9 µM

Worked set:
In [3]: df
Out[3]:
                                   compound  category
0  CCc1nc(-c2cccc(C)c2)c(-c2ccnc(N=S(C)(=O)c3ccccc3)c2)s1 (single isomer, unassigned; (-)) [Example 6]     bin 0
1  CCc1nc(-c2cccc(C)c2)c(-c2ccnc(N=S3(=O)CCCCC3)c2)s1     bin 2
2  CCc1nc(-c2cccc(C)c2)c(-c2ccnc(N=S3(=O)CCCC3)c2)s1     bin 1

Category of CCc1nc(-c2ccccc2)c(-c2ccnc(N=S(C)(=O)c3ccc(F)cc3)c2)s1 (centres unmarked) :
bin 1

Try the compound CCc1nc(-c2ccc(F)c(F)c2)c(-c2ccnc(N=S(C)(=O)c3ccc(F)cc3)c2)s1 (centres unmarked)
bin 1

----------
Observed pIC50 for p38 MAP kinase (Homo sapiens), reported per entry below.
Kindly note that pIC50 refers to -log10 of the concentration in mol/L and answer with the value alone.

These solved cases illustrate the format of a correct answer.
>>> df
                                   molecule  recorded_result
0  CCc1nc(-c2cccc(C)c2)c(-c2ccnc(N=S(=O)(c3ccccc3)c3ccccc3)c2)s1 [Example 11]             5.70
1  CCc1nc(-c2ccccc2)c(-c2ccnc(N=S(C)(=O)c3ccc(OC)cc3)c2)s1 (stereo not drawn) [Example 23]             5.18
2  CCc1nc(-c2ccccc2)c(-c2ccnc(N=S(C)(=O)c3ccccc3)c2)s1 (stereo not drawn) [Example 31]             5.49
3  CCc1nc(-c2ccc(F)c(F)c2)c(-c2ccnc(N=S(=O)(c3ccccc3)C(C)C)c2)s1 (stereo not drawn) [Example 60]             4.93
4  CCc1nc(-c2ccccc2)c(-c2ccnc(N=S(C)(=O)c3cccc(C)c3)c2)s1 (stereo not drawn) [Example 24]             5.01

Returns the measured pIC50 for the input molecule. Input: CCc1nc(-c2ccc(F)cc2)c(-c2ccnc(N=S(=O)(c3ccccc3)C(C)C)c2)s1 (single isomer, unassigned; (-)) [Example 36]
4.87

Try the molecule CC(C)S(=O)(=Nc1cc(-c2scnc2-c2ccc(F)cc2)ccn1)c1ccccc1 (stereo not drawn) [Example 74]
5.12

Try the molecule CCc1nc(-c2ccc(C)cc2)c(-c2ccnc(N=S(C)(=O)c3ccccc3)c2)s1 (stereo not drawn) [Example 64]
5.03

Try the molecule CCc1nc(-c2ccc(F)cc2)c(-c2ccnc(N=S(C)(=O)c3ccccc3)c2)s1 (single isomer, unassigned; (+)) [Example 40]
5.57
